Field: z-score. Provide a value for each of the molecules that follow.
# TEST_DETAILS: modulators of HCV replicon luciferase signal, primary screen, HCV replication inhibitor project, Huh7 cells, luciferase reporter (AID 1109);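 note: huh7 hepatoma cells harbouring a luciferase neomycin HCV replicon reporter; luciferase luminescence as measure of HCV replicon replication; test concentration not given here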
# STUDY_CONDITIONS: 48 h, higher = more signal
Give bare numbers.

MOLECULE | ASSAY_METRIC | REPORTED_VALUE
CCOC(=O)C[C@H]1[C@H](OC(=O)c2ccc(C(=O)c3ccccc3)cc2)[C@@H](NC(=O)c2ccccc2)c2cc(OCCCO)ccc2N1C(=O)c1ccc2ccccc2n1 | z-score | -1.16
CCCC[C@@H]1C[C@H]1[C@@H](NC(=O)C(C)(C)C)c1ccc(C(F)(F)F)cc1 | z-score | -1.71
C=C(COC)/C(=C/C[C@H](OC(C)=O)c1ccc(CO)o1)c1cc(C(=O)OC)ccc1OC | z-score | -0.246
C[N+](C)(C)CCCC[C@@H]1NC(=O)[C@H]2C[C@@H](C(=O)NCCCCCCNC(=O)CS)[C@@H](c3cccc(OCCO)c3)N2C1=O | z-score | -0.242
COC(=O)[C@H](Cc1ccccc1)N[C@@H](/C=C/C1CC1)[C@H](O)Cc1ccccc1 | z-score | -0.95
CC1CC/C=C\[C@H]2OC34C=CCN(Cc5ccccc5)C(=O)[C@H]3N(CCCO)C(=O)[C@@H]4C2C(=O)O1 (some centres undefined) | z-score | -1.29

Dear colleague, could you send me z-score for each of the items below? Thanks.
1. CCCCC(CC)C(O)C1C=CC2C(=O)N(Cc3ccccc3)C(=O)C2N1n1cnnc1 (centres undefined)
2. C=C(/C(=C/C[C@H](OC(C)=O)c1ccccc1OCCO)c1cnc2ccccc2c1)C(C)C
3. CCOC(=O)C1=CC[C@@H](c2ccccc2)N(S(=O)(=O)c2ccc(C)cc2)[C@H]1c1ccccc1C

OUTPUT:
[0.137, -2.42, -1.6]
